src = patent US12497460B2

# target: T1, MSR1 on differentiated THP-1 cells (Homo sapiens, UniProt P21757)
# T1 construct: endogenous in cells; host or cells: THP-1 cells differentiated with PMA
# T1 sequence (P21757 1-451): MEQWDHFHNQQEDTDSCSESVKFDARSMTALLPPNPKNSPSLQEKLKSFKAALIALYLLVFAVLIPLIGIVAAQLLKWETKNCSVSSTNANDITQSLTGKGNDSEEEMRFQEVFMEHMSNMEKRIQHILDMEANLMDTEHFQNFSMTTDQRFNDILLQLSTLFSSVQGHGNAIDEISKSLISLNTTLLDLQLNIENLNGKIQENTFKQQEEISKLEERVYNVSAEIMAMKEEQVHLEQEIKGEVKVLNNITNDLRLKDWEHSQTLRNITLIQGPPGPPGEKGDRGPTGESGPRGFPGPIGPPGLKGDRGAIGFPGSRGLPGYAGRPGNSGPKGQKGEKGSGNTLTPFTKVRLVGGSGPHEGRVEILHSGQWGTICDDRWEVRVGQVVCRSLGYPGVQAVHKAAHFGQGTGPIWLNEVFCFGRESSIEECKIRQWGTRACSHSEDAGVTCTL
# measurement.protocol: Binding and internalization of cell-surface expressed MSR1 in differentiated THP-1 cells
# Assay type: cell-based
# applied.conditions: 10 μg/mL antibody

{"molecule": "H1H27747P-N297Q (antibody, V domains shown) VH: QVQLVESGGAVVQPGRSLRLSCAASGFTFSYYGMHWVRQAPGKGLEWVAVISYDGSKKYYADSVKGRFTISRDNSKNTLYLQMNSLRAEDTAVYYCAKDLTVDFYYGMDVWGQGTTVTVSS VL: DIQMTQSPSSVSASVGDRVTITCRASQGISSWLAWYQQKPGKAPKLLIYATSSLQSGAPSRFSGSGSGTDFTLTISSLQPEDFATYFCQQANSFPYTFGQGTKLEIKR", "% Internalization": "58.2%"}
